All values here come from PubChem BioAssay (Tox21).

# Study Target: Nuclear receptor subfamily 1 group I member 2 (Rattus norvegicus) (UniProt Q9R1A7)
# Sequence (Q9R1A7 whole entry, looked up): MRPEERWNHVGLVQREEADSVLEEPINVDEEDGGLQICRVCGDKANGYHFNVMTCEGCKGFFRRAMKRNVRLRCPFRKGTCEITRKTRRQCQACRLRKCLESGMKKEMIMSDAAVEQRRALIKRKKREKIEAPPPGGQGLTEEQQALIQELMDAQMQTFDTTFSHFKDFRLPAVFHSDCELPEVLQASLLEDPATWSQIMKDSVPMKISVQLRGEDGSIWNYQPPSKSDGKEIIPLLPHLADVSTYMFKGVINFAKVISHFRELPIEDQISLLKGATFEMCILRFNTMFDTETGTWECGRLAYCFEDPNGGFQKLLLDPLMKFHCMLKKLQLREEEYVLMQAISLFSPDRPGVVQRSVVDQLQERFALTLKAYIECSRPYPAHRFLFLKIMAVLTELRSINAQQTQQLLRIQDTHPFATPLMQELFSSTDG
# Protocol Notes: Rat pregnane X receptor (rPXR) activation by small molecules, qHTS assay (AID 1346983); also: % is scaled to controls: 0 for no effect and ±100 for the full control effect
# Conditions: rPXR luciferase reporter cells, One-Glo luminescence, 24 h; stronger effect = higher value
Results filed as inconclusive are left out.
Readout: max activation (%)
Report only the number, with the unit % understood.

(Q) Param readout = max activation; param system = Nuclear receptor subfamily 1 group I member 2 (Rattus norvegicus) (UniProt Q9R1A7); param query = "CCN(CC)CCOC[C@H]1O[C@@H](O)[C@H](OCCN(CC)CC)[C@@H](O)[C@@H]1O" ; response: value
(A) -3.03

(Q) Nuclear receptor subfamily 1 group I member 2 (Rattus norvegicus) (UniProt Q9R1A7) / max activation / "O=C[C@H](O)[C@@H](O)[C@@H](O)[C@H](O)CO" : value?
(A) -2.08

(Q) Query max activation on Nuclear receptor subfamily 1 group I member 2 (Rattus norvegicus) (UniProt Q9R1A7) for "CCCOC(=O)c1ccc(O)cc1"
(A) -0.262

(Q) // map "Nc1cc(Cl)c(NC2=NCCN2)c(Cl)c1" to recorded max activation (system: Nuclear receptor subfamily 1 group I member 2 (Rattus norvegicus) (UniProt Q9R1A7))
(A) -1.9

(Q) What max activation appears in the records for this compound with Nuclear receptor subfamily 1 group I member 2 (Rattus norvegicus) (UniProt Q9R1A7)? "CC/C(=C(/CC)c1ccc(OP(=O)(O)O)cc1)c1ccc(OP(=O)(O)O)cc1"
(A) -1.74

(Q) GET /values?readout=max activation&system=Nuclear receptor subfamily 1 group I member 2 (Rattus norvegicus) (UniProt Q9R1A7)&item= "CCCCCN=C(N)N/N=C/c1c[nH]c2ccc(OC)cc12"
(A) -0.704
